This collection of values is drawn from the METLIN SMRT retention time set (Domingo-Almenara et al. 2019).

assay: gradient 5% acetonitrile 3 min, to 50% in 2 min, to 85% in 15 min, held 3 min, 100 µL/min; conditions: column: Zorbax Extend-C18 2.1 x 50 mm; eluents: water / acetonitrile, 0.1% formic acid
parameterMeasured: RP-LC retention time (s)

molecule	RP-LC retention time [s]
CCOC(=O)C1C(=O)C=C(c2ccco2)CC1c1ccccc1Cl (centres undefined)	1090
COc1ccc(-c2noc(-c3nc(-c4ccccc4OC)no3)n2)cc1OC	1070
CCCC(=O)N1CCCC(c2nc(CNC(=O)C(C)C)cs2)C1 (centres undefined)	671
CC(C)n1cnc2c(NCCc3ccc(O)cc3)nc(-c3csc4ccccc34)nc21	1160
CCOc1ccc(CC(=O)NC2CCN(c3cc(-c4ccccc4)[nH]n3)C2)cc1OCC (centres undefined)	721
O=C(Nc1ccc(N2CCOCC2)cc1)C1CN(S(=O)(=O)C2CC2)CC12CCCCC2 (centres undefined)	812
O=c1c2cc(-c3cccs3)nn2cnn1Cc1nc(-c2cccc(Br)c2)no1	1150
Cc1ccc(-c2nc(-c3ccc(S(=O)(=O)N4CCC(C(=O)N5CCCC5)CC4)cc3)no2)cc1C	1180
CN1C(=O)Cc2cc(C(=O)NC3CCN(Cc4ccccc4)CC3)ccc21	892
